Biological target: Alpha-1 adrenergic receptor (Mus musculus) (UniProt P97714+P97717+P97718)
Sequence (P97714 whole entry, looked up): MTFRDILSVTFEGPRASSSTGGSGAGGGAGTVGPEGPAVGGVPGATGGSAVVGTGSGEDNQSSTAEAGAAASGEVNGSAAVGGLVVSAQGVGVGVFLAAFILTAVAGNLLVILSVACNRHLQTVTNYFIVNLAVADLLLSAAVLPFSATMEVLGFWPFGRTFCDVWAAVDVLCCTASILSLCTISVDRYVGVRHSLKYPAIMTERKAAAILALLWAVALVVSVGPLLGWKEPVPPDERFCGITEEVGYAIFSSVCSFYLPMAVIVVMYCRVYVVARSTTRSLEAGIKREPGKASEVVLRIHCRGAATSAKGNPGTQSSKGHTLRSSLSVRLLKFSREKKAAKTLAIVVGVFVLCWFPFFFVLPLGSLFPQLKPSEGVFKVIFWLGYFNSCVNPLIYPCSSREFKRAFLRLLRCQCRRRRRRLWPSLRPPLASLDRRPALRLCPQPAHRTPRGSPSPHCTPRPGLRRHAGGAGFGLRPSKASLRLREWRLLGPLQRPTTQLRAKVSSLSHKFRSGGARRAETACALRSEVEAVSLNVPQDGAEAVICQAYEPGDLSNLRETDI
Sequence (P97717 whole entry, looked up): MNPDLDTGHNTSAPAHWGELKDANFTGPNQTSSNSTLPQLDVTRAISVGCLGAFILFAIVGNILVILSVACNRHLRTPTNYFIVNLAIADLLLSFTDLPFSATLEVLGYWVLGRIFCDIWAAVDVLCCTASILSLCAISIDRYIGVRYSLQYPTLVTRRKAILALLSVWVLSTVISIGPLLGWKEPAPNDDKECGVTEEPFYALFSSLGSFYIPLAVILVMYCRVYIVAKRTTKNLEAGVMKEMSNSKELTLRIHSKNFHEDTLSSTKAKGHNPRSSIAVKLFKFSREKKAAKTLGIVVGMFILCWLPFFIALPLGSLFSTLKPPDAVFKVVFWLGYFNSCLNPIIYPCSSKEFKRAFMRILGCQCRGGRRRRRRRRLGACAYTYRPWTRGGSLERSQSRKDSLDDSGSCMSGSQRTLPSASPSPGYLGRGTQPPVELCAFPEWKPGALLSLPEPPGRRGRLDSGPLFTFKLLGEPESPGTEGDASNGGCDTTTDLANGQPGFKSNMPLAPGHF
Sequence (P97718 whole entry, looked up): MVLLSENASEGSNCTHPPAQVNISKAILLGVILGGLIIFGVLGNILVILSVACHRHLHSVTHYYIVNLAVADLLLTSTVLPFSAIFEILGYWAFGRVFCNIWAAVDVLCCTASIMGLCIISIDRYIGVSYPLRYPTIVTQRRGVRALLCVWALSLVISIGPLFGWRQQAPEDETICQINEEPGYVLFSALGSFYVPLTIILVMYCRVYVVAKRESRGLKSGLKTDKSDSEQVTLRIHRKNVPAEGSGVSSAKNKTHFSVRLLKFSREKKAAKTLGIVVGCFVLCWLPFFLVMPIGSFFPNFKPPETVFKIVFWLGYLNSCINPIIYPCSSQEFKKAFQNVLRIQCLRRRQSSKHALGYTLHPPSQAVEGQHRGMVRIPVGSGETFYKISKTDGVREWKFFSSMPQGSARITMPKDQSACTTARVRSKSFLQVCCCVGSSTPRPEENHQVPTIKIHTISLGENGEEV
Assay: Inhibition of noradrenaline lethal effects in mice as alpha-1 induced adrenoceptor antagonist activity
Assay type: functional
endpointLabel: ED50

• CCOc1ccccc1N1CCN(CCCCOc2ccc3c(c2)NC(=O)CC3)CC1 = 7 µmol/kg
• Cc1c(Cl)cccc1N1CCN(CCCCOc2ccc3c(c2)NC(=O)CC3)CC1 = > 299 µmol/kg
• Cc1c(N2CCN(CCCCOc3ccc4c(c3)NC(=O)CC4)CC2)cccc1[N+](=O)[O-] = > 146 µmol/kg
• O=C1CCc2ccc(OCCCCN3CCN(c4cc(Cl)cc(Cl)c4Cl)CC3)cc2N1 = > 265 µmol/kg
• O=C(CCCN1CCC(O)(c2ccc(Cl)cc2)CC1)c1ccc(F)cc1 = > 341 µmol/kg
• CN(C)CCCN1c2ccccc2Sc2ccc(Cl)cc21 = 19.7 µmol/kg

ED50 recorded for this molecule, "Cc1cccc(N2CCN(CCCOc3ccc4ccc(O)nc4c3)CC2)c1C" , is 151 µmol/kg

Data credit: ChEMBL document CHEMBL1131480
